System: HT-1080
Experiment: Cytotoxicity against human HT1080 cells by MTT assay
Assay type: functional
Details: read-out: ED50 (the source's name)
Recorded endpoint: EC50 (µM)
Response body: numeric value in µM, unit text excluded.

Below are worked cases with known answers.
Molecule: COc1cc2c(c3c1C(=O)CC(c1ccc(O)cc1)O3)[C@@H]1C[C@H](CCc3ccc(O)cc3)O[C@H](c3ccc(O)cc3)[C@H]1[C@H](c1ccc(O)cc1)O2 (mixture of isomers) [CALYXIN J]
Recorded endpoint: EC50
Numeric result: 0.32
--
Molecule: COc1cc(O)c([C@@H]2C[C@H](CCc3ccc(O)cc3)O[C@H](c3ccc(O)cc3)C2)c2c1C(=O)CC(c1ccc(O)cc1)O2 (stereo in doubt; 4)
Recorded endpoint: EC50
Numeric result: 4.75
--
Molecule: COc1cc2c(c3c1C(=O)CC(c1ccc(O)cc1)O3)[C@@H]1C[C@H](CCc3ccc(O)cc3)O[C@H](c3ccc(O)cc3)[C@H]1[C@H](c1ccc(O)cc1)O2 (stereo in doubt; 7) [CALYXIN J]
Recorded endpoint: EC50
Numeric result: 8.19

# ---- query molecule ----
Lookup result for COc1cc2c(c3c1C(=O)CC(c1ccc(O)cc1)O3)[C@@H]1C[C@H](CCc3ccc(O)cc3)O[C@@H]1O2 (stereo in doubt; 13) ; measured EC50: 20.2

====

Assay: Cytotoxicity against mouse 26-L5 cells by MTT assay
Assay type: functional
Details: read-out: ED50 (the source's name)
Recorded endpoint: EC50 (µM)
Response body: numeric value in µM, unit text excluded.

Below are worked cases with known answers.
Compound: COc1cc2c(c3c1C(=O)CC(c1ccc(O)cc1)O3)[C@@H]1C[C@H](CCc3ccc(O)cc3)O[C@H](c3ccc(O)cc3)[C@H]1[C@H](c1ccc(O)cc1)O2 (mixture of isomers)
Output unit: µM
Numeric result: 13.7
--
Compound: COc1cc2c(c3c1C(=O)CC(c1ccc(O)cc1)O3)[C@@H]1C[C@H](CCc3ccc(O)cc3)O[C@@H]1O2 (stereo in doubt; 13)
Output unit: µM
Numeric result: 78
--
Compound: COc1cc(O)c([C@@H]2C[C@H](CCc3ccc(O)cc3)O[C@H](c3ccc(O)cc3)C2)c2c1C(=O)CC(c1ccc(O)cc1)O2 (stereo in doubt; 4) [CALYXIN K]
Output unit: µM
Numeric result: 33

# ---- query compound ----
Lookup result for COc1cc(O)c([C@@H]2C[C@H](CCc3ccc(O)cc3)O[C@H](c3ccc(O)cc3)C2)c2c1C(=O)CC(c1ccc(O)cc1)O2 (stereo in doubt; 3) [CALYXIN K] ; measured EC50: 7.73

====

Experiment: Cytotoxicity against mouse 26-L5 cells by MTT assay
Type: functional
Settings: Mus musculus; read-out: ED50 (the source's name)
Recorded endpoint: EC50 (µM)
Response body: numeric value in µM, unit text excluded.

Compound: COc1cc(O)c(C(/C=C/c2ccc(O)cc2)C[C@@H](O)CCc2ccc(O)cc2)c2c1C(=O)CC(c1ccc(O)cc1)O2 (stereo not given in full)
EC50 [µM]: 98.1
//
Compound: COc1cc2c(c3c1C(=O)CC(c1ccc(O)cc1)O3)[C@H](C[C@@H](O)CCc1ccc(O)cc1)C[C@H](c1ccc(O)cc1)O2 (mixture of isomers)
EC50 [µM]: 42.1
//
Compound: COc1cc(O)c([C@@H]2C[C@H](CCc3ccc(O)cc3)O[C@@H](c3ccc(O)cc3)C2)c(O)c1C(=O)/C=C/c1ccc(O)cc1 [EPICALYXIN F]
EC50 [µM]: 0.89

# ---- query compound ----
Lookup result for COc1cc2c(c3c1C(=O)CC(c1ccc(O)cc1)O3)[C@@H]1C[C@H](CCc3ccc(O)cc3)O[C@H](c3ccc(O)cc3)[C@H]1[C@H](c1ccc(O)cc1)O2 (stereo in doubt; 7) ; measured EC50: 23.2
